- target-entity: human GluN1^FA,TL/GluN3A receptors (Homo sapiens, UniProt Q8TCU5)
- Construct: Human GluN3A (NP_597702.2) and rat GluN3B (NP_579842.2) were synthesized and subcloned into SP6 plasmids; expressed in transfected cells; host or cells: Xenopus laevis oocytes, cRNA injection (GluN1:GluN3 1:3)
- Sequence (Q8TCU5 24-1115, other chains not shown): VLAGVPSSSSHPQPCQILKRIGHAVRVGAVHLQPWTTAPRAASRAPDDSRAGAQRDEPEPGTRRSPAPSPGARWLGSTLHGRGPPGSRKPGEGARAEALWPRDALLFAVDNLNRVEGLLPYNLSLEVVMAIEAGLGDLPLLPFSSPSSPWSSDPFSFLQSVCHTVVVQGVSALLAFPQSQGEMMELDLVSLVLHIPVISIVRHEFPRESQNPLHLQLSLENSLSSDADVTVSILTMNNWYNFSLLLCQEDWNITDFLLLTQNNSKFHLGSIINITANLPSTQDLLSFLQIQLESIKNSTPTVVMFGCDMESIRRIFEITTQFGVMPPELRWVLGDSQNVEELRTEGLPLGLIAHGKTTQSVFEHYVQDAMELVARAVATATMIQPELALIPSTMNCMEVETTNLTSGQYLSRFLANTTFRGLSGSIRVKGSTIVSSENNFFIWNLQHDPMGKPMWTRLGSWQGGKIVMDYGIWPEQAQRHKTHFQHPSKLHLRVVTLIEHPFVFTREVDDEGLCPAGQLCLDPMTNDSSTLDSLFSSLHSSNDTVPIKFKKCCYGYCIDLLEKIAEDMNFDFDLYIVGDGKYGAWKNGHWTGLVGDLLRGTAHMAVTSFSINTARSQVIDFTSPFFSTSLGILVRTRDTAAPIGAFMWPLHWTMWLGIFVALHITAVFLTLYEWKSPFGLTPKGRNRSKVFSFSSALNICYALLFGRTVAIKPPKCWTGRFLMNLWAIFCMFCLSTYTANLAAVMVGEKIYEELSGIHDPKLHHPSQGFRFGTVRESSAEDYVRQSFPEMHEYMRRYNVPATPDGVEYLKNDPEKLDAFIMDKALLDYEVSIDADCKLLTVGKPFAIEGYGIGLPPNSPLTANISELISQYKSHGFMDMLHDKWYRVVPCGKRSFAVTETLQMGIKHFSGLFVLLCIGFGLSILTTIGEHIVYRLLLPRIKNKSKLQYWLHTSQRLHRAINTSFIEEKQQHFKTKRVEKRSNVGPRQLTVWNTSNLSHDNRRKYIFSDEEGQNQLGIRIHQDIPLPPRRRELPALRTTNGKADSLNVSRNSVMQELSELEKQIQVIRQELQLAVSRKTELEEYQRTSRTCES
- assay-notes: Two-electrode voltage-clamp recordings of GluN1^FA,TL/GluN3A receptors in Xenopus oocytes
- Type: cell-based
- condition-parameters: hGluN1^FA,TL/hGluN3A; read-out: IC50
measurement-type: IC50 (µM)

molecule: COc1ccc(OCC(c2ccc(OC(C)C)cc2)N2Cc3ccccc3C2=O)cc1 (centres unmarked)
IC50 [µM]: 3.12

[I] CCOc1ccc(OCC(c2ccc(OC(C)C)cc2)N2Cc3ccc(F)cc3C2=O)cc1 (centres unmarked)
[II] COc1cc(F)c(C(COc2cccc(C)n2)N2Cc3ccc(Cl)cc3C2=O)c(F)c1 (centres unmarked)
[III] CCOc1ccc(OCC(c2ccc(OC(C)C)cc2)N2Cc3ccccc3C2=O)cc1 (centres unmarked)
[IV] Cc1cccc(OCC(c2ccc(OC(C)C)cc2)N2Cc3ccccc3C2=O)n1 (centres unmarked)
Task: Thanks in advance: please rank these 4 entries by IC50, highest to lowest. Please list the labels in the order you were asked to rank them.
Result: II, I, IV, III

###

- target-entity: human GluN1^FA,TL/GluN3A receptors (Homo sapiens, UniProt Q8TCU5)
- Construct: Human GluN3A (NP_597702.2) and rat GluN3B (NP_579842.2) were synthesized and subcloned into SP6 plasmids; expressed in transfected cells; host or cells: Xenopus laevis oocytes, cRNA injection (GluN1:GluN3 1:3)
- assay-notes: Two-electrode voltage-clamp recordings of GluN1^FA,TL/GluN3A receptors in Xenopus oocytes
- Assay type: cell-based
- condition-parameters: read-out: hGluN1^FA,TL/hGluN3A (100 × Idrug/Icontrol at 30 μM drug)
measurement-type: remaining activity at 30 µM (%)

molecule: COc1ccc(OCC(c2c(F)cc(OC)cc2F)N2Cc3ccc(C(F)(F)F)cc3C2=O)cc1 (stereo not shown) [EU1180-546]
result-units: %
numeric-readout: 96

molecule: COc1ccc(C(COc2cccc(C)n2)N2Cc3cc(Cl)ccc3C2=O)cc1 (stereo not shown) [EU1180-594]
result-units: %
numeric-readout: 73

[I] COc1cc(F)c(C(COc2cccc(C)n2)N2Cc3ccc(F)cc3C2=O)c(F)c1 (stereo not shown) [EU1180-614]
[II] CC(C)Oc1ccc(C(COc2ccc(C(F)(F)F)cc2)N2Cc3ccccc3C2=O)cc1 (stereo not shown) [EU1180-571]
Task: Which value of remaining activity at 30 µM is numerically greater: that of I or that of II ? The response must carry the label of the picked entry.
Result: II

###

- target-entity: rat GluN1-4a/GluN3B receptors (Rattus norvegicus, UniProt Q8VHN2)
- Construct: Human GluN3A (NP_597702.2) and rat GluN3B (NP_579842.2) were synthesized and subcloned into SP6 plasmids; expressed in transfected cells; host or cells: Xenopus laevis oocytes, cRNA injection
- Sequence (Q8VHN2 25-1002, other chains not shown): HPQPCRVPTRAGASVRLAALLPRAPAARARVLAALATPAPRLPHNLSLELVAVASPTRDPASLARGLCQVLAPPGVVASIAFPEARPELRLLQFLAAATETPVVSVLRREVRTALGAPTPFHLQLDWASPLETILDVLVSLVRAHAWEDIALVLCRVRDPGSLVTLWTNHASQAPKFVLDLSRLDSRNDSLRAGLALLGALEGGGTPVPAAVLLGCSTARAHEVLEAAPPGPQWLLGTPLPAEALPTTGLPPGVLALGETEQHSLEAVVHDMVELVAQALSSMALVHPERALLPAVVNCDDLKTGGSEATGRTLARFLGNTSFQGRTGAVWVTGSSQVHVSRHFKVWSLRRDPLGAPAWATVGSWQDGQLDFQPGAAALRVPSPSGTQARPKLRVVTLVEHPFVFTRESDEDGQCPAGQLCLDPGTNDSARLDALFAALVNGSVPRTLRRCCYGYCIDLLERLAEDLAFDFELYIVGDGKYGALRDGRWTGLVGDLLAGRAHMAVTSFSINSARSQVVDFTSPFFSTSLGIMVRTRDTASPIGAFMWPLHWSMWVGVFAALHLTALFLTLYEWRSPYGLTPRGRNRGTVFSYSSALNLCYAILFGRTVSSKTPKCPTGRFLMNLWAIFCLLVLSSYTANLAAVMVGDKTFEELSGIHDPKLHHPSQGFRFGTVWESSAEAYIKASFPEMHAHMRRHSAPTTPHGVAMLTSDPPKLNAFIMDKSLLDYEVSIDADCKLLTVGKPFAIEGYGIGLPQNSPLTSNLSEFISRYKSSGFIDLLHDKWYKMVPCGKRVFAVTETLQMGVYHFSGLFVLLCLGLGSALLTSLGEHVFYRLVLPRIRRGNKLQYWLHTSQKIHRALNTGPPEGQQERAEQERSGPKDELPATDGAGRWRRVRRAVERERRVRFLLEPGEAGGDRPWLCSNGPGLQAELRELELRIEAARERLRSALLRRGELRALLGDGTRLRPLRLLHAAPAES
- assay-notes: Two-electrode voltage-clamp recordings of GluN1-4a/GluN3B receptors in the presence of CGP-78608 (Xenopus oocytes)
- Assay type: cell-based
- condition-parameters: @ 10 μM drug; 0.5 μM CGP-78608
measurement-type: rat GluN1-4a/GluN3B + CGP (100 × Idrug/Icontrol) (% @ 10 μM drug)

Take a look at these entries with their results.
compound: COc1ccc(OCC(c2ccc(OC)cc2)N2Cc3ccccc3C2=O)cc1 (single isomer, unassigned; (-)) [(−) EU1180-438]
target-entity: rat GluN1-4a/GluN3B receptors (Rattus norvegicus, UniProt Q8VHN2)
result-units: % @ 10 μM drug
numeric-readout: 70
//
compound: COc1ccc(OCC(c2ccc(OC)cc2)N2CCc3ccccc3C2=O)cc1 (centres unmarked)
target-entity: rat GluN1-4a/GluN3B receptors (Rattus norvegicus, UniProt Q8VHN2)
result-units: % @ 10 μM drug
numeric-readout: 31
//
compound: COc1ccc(OCC(c2ccccc2)N2CCc3ccccc3C2=O)cc1 (centres unmarked)
target-entity: rat GluN1-4a/GluN3B receptors (Rattus norvegicus, UniProt Q8VHN2)
result-units: % @ 10 μM drug
numeric-readout: 38

[P] COc1ccc(OCC(c2ccc(OC)cc2)N2Cc3ccccc3C2=O)cc1 (single isomer, unassigned; (+)) [(+) EU1180-438]
[Q] COc1ccc(OCC(c2ccccc2)N2Cc3ccccc3C2=O)cc1 (centres unmarked)
Task: Which value of rat GluN1-4a/GluN3B + CGP (100 × Idrug/Icontrol) is numerically greater: that of P or that of Q ? The response must carry the label of the picked entry.
Result: Q
(Q: 42 % @ 10 μM drug, P: 28 % @ 10 μM drug)

###

- assay-notes: In vivo pharmacokinetics and brain penetration in mice
- Design: species or system mouse
- condition-parameters: male, C57BL/6, mouse, brain, ip, 20 mg/kg, mice; 20 mg/kg intraperitoneal; 2 hour; read-out: Brain Concentration
- Description: EU1180-438 was dosed at 20 mg/kg intraperitoneal in seven freely-fed male C57BL/6 mice. EU1180-438 was formulated in 5% DMA, 10% PEG, 30% HPBCD, qs to volume w/water. Plasma was sampled at seven points: pre-dose, 0.25, 0.5, 1, 2, 4, and 8 hours (n=3 per time point, 21 plasma samples per treatment group). […] Samples were analyzed via LC-MS/MS to quantify the amount of parent compound present in each sample. EU1180-438 was tested in male C57BL/6 mice for brain penetrability. […]
measurement-type: concentration at 2 h (nM)
Quick reminder: number only, in nM, skip the unit.

Task: Name the recorded concentration at 2 h for COc1ccc(OCC(c2ccc(OC)cc2)N2Cc3ccccc3C2=O)cc1 (racemic) .
Result: 1050

###

- target-entity: human GluN1^FA,TL/GluN3A receptors (Homo sapiens, UniProt Q8TCU5)
- Construct: Human GluN3A (NP_597702.2) and rat GluN3B (NP_579842.2) were synthesized and subcloned into SP6 plasmids; expressed in transfected cells; host or cells: Xenopus laevis oocytes, cRNA injection (GluN1:GluN3 1:3)
- assay-notes: Two-electrode voltage-clamp recordings of GluN1^FA,TL/GluN3A receptors in Xenopus oocytes
- Type: cell-based
- condition-parameters: read-out: hGluN1^FA,TL/hGluN3A (100 × Idrug/Icontrol at 30 μM drug)
measurement-type: remaining activity at 30 µM (%)

compound: CC(C)Oc1ccc(C(COc2ccc(C(F)(F)F)cc2)N2Cc3ccc(Cl)cc3C2=O)cc1 (centres unmarked) [EU1180-573]
remaining activity at 30 µM / %: 100
//
compound: COc1ccc(OCC(c2ccc(OC(C)C)cc2)N2Cc3ccc(Br)cc3C2=O)cc1 (centres unmarked) [EU1180-562]
remaining activity at 30 µM / %: 98
//
compound: COc1ccc(C(COc2cccc(C)n2)N2Cc3cc(Br)ccc3C2=O)c(F)c1 (centres unmarked) [EU1180-606]
remaining activity at 30 µM / %: 66
//
compound: COc1cc(F)c(C(COc2cccc(C)n2)N2Cc3cc(F)ccc3C2=O)c(F)c1 (centres unmarked) [EU1180-613]
remaining activity at 30 µM / %: 89
//
compound: COc1ccc(OCC(c2ccc(OC(C)C)cc2)N2Cc3cc(F)ccc3C2=O)cc1 (centres unmarked) [EU1180-561]
remaining activity at 30 µM / %: 88
//
compound: COc1ccc(OCC(c2ccc(OC)cc2)N2Cc3cc(Cl)ccc3C2=O)cc1 (centres unmarked) [EU1180-517]
remaining activity at 30 µM / %: 92
//
compound: CC(C)Oc1ccc(C(COc2ccc(C(F)(F)F)cc2)N2Cc3ccc(C(F)(F)F)cc3C2=O)cc1 (centres unmarked) [EU1180-572]
remaining activity at 30 µM / %: 91
//
compound: CCOc1ccc(OCC(c2ccc(OC(C)C)cc2)N2Cc3cc(Cl)ccc3C2=O)cc1 (centres unmarked) [EU1180-589]
remaining activity at 30 µM / %: 87

###

- target-entity: human GluN1^FA,TL/GluN3A receptors (Homo sapiens)
- Construct: Human GluN3A (NP_597702.2) and rat GluN3B (NP_579842.2) were synthesized and subcloned into SP6 plasmids; expressed in transfected cells; host or cells: Xenopus laevis oocytes, cRNA injection (GluN1:GluN3 1:3)
- assay-notes: Two-electrode voltage-clamp recordings of GluN1^FA,TL/GluN3A receptors in Xenopus oocytes
- Type: cell-based
- condition-parameters: read-out: hGluN1^FA,TL/hGluN3A (100 × Idrug/Icontrol at 30 μM drug)
measurement-type: remaining activity at 30 µM (%)

compound: COc1ccc(C(COc2cccc(C)n2)N2Cc3ccc(C(F)(F)F)cc3C2=O)c(F)c1 (stereo not drawn) [EU1180-603]
result-units: %
remaining activity at 30 µM: 84

compound: COc1ccc(OCC(c2ccc(OC)c(OC)c2)N2Cc3cc(Cl)ccc3C2=O)cc1 (stereo not drawn) [EU1180-524]
result-units: %
remaining activity at 30 µM: 102

compound: COc1ccc(OCC(c2ccc(OC(C)C)cc2)N2Cc3cc(Cl)ccc3C2=O)cc1 (stereo not drawn) [EU1180-559]
result-units: %
remaining activity at 30 µM: 96

compound: COc1ccc(OCC(c2ccc(OC)cc2F)N2Cc3ccc(Cl)cc3C2=O)cc1 (stereo not drawn) [EU1180-533]
result-units: %
remaining activity at 30 µM: 49

compound: CC(C)Oc1ccc(C(COc2ccc(C(F)(F)F)cc2)N2Cc3ccc(Br)cc3C2=O)cc1 (stereo not drawn) [EU1180-577]
result-units: %
remaining activity at 30 µM: 108

[A] COc1ccc(OCC(c2c(F)cc(OC)cc2F)N2Cc3cc(Cl)ccc3C2=O)cc1 (stereo not drawn) [EU1180-547]
[B] COc1ccc(OCC(c2ccc(OC(C)C)cc2)N2Cc3ccc(F)cc3C2=O)cc1 (stereo not drawn) [EU1180-560]
Task: Which value of remaining activity at 30 µM is numerically greater: that of A or that of B ? The response must carry the label of the picked entry.
Result: A
(A: 98%, B: 23%)

[1] COc1ccc(C(COc2cccc(C)n2)N2Cc3cc(F)ccc3C2=O)cc1 (stereo not drawn) [EU1180-598]
[2] COc1ccc(C(COc2cccc(C)n2)N2Cc3ccc(F)cc3C2=O)cc1 (stereo not drawn) [EU1180-599]
Task: Which value of remaining activity at 30 µM is numerically greater: that of 1 or that of 2 ? The response must carry the label of the picked entry.
Result: 1
